Reported Kd against Retinoic acid receptor RXR-alpha (Homo sapiens, UniProt P19793), gathered from multiple publications, appears below.
Sequence (P19793 whole entry): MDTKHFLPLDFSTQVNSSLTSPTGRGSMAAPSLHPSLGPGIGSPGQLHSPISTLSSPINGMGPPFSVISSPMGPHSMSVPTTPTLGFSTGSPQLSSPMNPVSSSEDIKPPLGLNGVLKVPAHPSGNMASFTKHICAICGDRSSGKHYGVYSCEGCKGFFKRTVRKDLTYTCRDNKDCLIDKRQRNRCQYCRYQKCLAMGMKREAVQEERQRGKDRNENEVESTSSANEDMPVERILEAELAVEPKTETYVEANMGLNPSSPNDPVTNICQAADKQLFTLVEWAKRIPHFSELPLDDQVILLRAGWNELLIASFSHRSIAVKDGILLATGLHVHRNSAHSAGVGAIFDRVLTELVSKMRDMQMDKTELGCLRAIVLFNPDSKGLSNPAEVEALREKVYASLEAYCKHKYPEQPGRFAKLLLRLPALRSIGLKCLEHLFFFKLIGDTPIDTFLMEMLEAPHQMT

| structure | Kd |
| --- | --- |
| CC1(C)CC(C)(C)c2cc(C(=O)Nc3ccc(C(=O)O)c(F)c3)cc(N=[N+]=[N-])c2O1 | > 1 µM |
| Cc1cc2c(cc1Sc1ccc(C(=O)O)cn1)C(C)(C)CCC2(C)C | 0.032 µM |
| CC(/C=C/[C@@H]1C[C@]1(C)c1ccc2c(c1)C(C)(C)CC(=O)N2C(C)C)=C\C(=O)O | 0.0014 µM |
| CC1(C)CCC(C)(C)c2cc(C(=O)Nc3cc(F)c(C(=O)O)c(F)c3)ccc21 | > 1 µM |
| CC1(C)CCC(C)(C)c2cc(S(=O)(=O)c3ccc(C(=O)O)cc3)ccc21 | > 1 µM |
| Cc1cc2c(cc1Sc1ncc(C(=O)O)s1)C(C)(C)CCC2(C)C | > 1 µM |

====

pKd: −log10 of the molar value.
Below: molecules with pKd recorded for Retinoic acid receptor RXR-alpha (Homo sapiens, UniProt P19793) in separate published works.
Please note: true (1) applies when pKd is 9 or greater, and false (0) applies otherwise.

| molecule | group label |
| --- | --- |
| CC(C=CC1CC1(C)c1ccc2c(c1)C(C)(C)CCS2)=CC(=O)O (stereo not drawn) | false (0) |
| CC1(C)CC(C)(C)c2cc(C(=O)Nc3cc(F)c(C(=O)O)c(F)c3)cc(C(F)(F)F)c2O1 | false (0) |
| Cc1cc2c(cc1/C(=C/c1ccc(C(=O)C(=O)O)cc1)[Si](C)(C)C)C(C)(C)CCC2(C)C | false (0) |
| CCCCC1=CC(C)(C)Oc2cc([C@@]3(C)C[C@H]3/C=C/C(C)=C/C(=O)O)ccc21 | true (1) |
| CCOc1c(\C(C)=C(F)/C=C/C(C)=C/C(=O)O)cc2c(c1Br)C(C)(C)CC=C2C(C)C | false (0) |
| CC(C)(C)c1cc(C(=O)Nc2cc(F)c(C(=O)O)c(F)c2)cc(C(C)(C)C)c1 | false (0) |
| CCCC1(c2cc(C(C)(C)C)cc(C(C)(C)C)c2)CC1/C=C/C(C)=C/C(=O)O (single isomer, unassigned; (+)) | true (1) |
| CCCOc1c(\C(C)=C(F)/C=C/C(C)=C/C(=O)O)cc2c(c1Br)C(C)(C)CC=C2C(C)C | false (0) |
| CC(C)(C)c1cc(C(=O)Nc2ccc(C(=O)O)c([N+](=O)[O-])c2)cc(C(C)(C)C)n1 | false (0) |
| CC1(C)CC(C)(C)c2cc(C(=O)Nc3ccc(C(=O)O)c(F)c3)ccc2O1 | false (0) |
| CC(/C=C/C(F)=C(/C)c1cc2c(c(Br)c1OC(C)C)C(C)(C)CC=C2C(C)(C)C)=C\C(=O)O | false (0) |
| CCOc1c(\C(CC)=C(F)/C=C/C(C)=C/C(=O)O)cc2c(c1Br)C(C)(C)CC=C2C(C)C | false (0) |
| CC(/C=C/[C@@H]1C[C@]1(C)c1ccc2c(c1)OC(C)(C)C=C2C(C)C)=C\C(=O)O | true (1) |
| CC1(C)CCC(C)(C)c2cc(C(=O)Nc3ccc(C(=O)O)c(F)c3)ccc21 | false (0) |
| CC1(C)CC(C)(C)c2cc(C(=O)Nc3ccc(C(=O)O)c(F)c3)cc(C(F)(F)F)c2O1 | false (0) |

====

pKd: −log10 of the molar value.
Before we begin, note that these pKd values for Retinoic acid receptor RXR-alpha (Homo sapiens, UniProt P19793) originate from several publications.

| structure | result operator | pKd |
| --- | --- | --- |
| CC(/C=C/CC1(c2ccc3c(c2)C(C)(C)CCC3(C)C)CC1)=C\C(=O)O | = | 8.70 |
| CC1(C)CC(C)(C)c2cc(C(=O)Nc3ccc(C(=O)O)c(F)c3)cc(I)c2O1 | < | 6.00 |
| CCOc1c(\C(C)=C(F)/C=C/C(C)=C/C(=O)O)cc2c(c1Br)C(C)(C)CC=C2C(C)(C)C | = | 8.70 |
| CC1(C)CCC(C)(C)c2cc(Sc3ccc(C(=O)O)cc3)ccc21 | < | 6.00 |
